# measured.target: Calpain-1 catalytic subunit (Homo sapiens)
# Sequence (P07384 whole entry): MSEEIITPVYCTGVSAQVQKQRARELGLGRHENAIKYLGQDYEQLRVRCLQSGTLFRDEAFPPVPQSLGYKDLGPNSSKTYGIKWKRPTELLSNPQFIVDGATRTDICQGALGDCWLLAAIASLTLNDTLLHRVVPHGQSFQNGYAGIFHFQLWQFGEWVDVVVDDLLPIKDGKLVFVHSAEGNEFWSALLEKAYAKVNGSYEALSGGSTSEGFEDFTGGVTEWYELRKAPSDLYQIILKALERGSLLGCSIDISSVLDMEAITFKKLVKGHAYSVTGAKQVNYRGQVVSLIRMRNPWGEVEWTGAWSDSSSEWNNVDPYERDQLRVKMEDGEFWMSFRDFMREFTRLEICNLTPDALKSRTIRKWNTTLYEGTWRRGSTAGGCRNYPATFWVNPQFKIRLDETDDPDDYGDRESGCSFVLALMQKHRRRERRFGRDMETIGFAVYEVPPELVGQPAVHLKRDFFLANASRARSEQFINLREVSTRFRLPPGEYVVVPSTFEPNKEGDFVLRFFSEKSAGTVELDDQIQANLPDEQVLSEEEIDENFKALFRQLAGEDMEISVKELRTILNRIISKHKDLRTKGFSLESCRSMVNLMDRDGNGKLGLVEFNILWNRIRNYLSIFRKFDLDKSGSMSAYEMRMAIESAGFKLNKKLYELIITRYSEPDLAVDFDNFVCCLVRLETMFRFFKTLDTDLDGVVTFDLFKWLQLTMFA
# assay.explanation: Inhibitory activity using recombinant human Calpain 1 with Suc-Leu-Tyr-MNA as substrate.
endpoint: IC50 (nM)

[A] CC(C)C[C@H](CC[S+]([O-])c1ccc2ccccc2c1)C(=O)N[C@H](C=O)CC(C)C (some centres not stated)
[B] CC(C)C[C@H](CCSc1ccc2ccccc2c1)C(=O)N[C@H](C=O)CC(C)C
-- ask // task: argmin of IC50 over [ A , B ] Pick one; state its label.
-- reply A

---

# measured.target: Prothrombin (Homo sapiens) (UniProt P00734)
# assay.explanation: Inhibitory activity using serine protease, thrombin with Cbz-Phe-Val-Arg-AMC as substrate. The percent inhibition at 10 uM concentration, was reported.
endpoint: inhibition (%)

Consider the reported inhibition for these compounds:
compound | endpoint | number
CC(C)C[C@@H](CCS(=O)(=O)c1ccc2ccccc2c1)C(=O)N[C@H](C=O)CC(C)C | inhibition | 2
CC(C)C[C@H](CCSc1ccc2ccccc2c1)C(=O)N[C@H](C=O)CC(C)C | inhibition | 5

[1] CC(C)C[C@H](CCS(=O)(=O)c1ccc2ccccc2c1)C(=O)N[C@H](C=O)CC(C)C
[2] CC(C)C[C@H](CC[S+]([O-])c1ccc2ccccc2c1)C(=O)N[C@H](C=O)CC(C)C (some centres undefined)
-- ask // task: argmin of inhibition over [ 1 , 2 ] Pick one; state its label.
-- reply 1
(1: 1%, 2: 2%)
